system: PC-3; assay: Cytotoxicity against human PC3 cells assessed as reduction in cell viability by MTT assay; type: functional, cell-based
Measured pIC50 by item
Hey, just a heads up that pIC50 is the negative log base 10 of the concentration in molar.

Worked examples, 2 molecules total:
In [3]: df
Out[3]:
                                   molecule  assay_metric  value_observed
0  Cc1cccc(Nc2nc3nonc3nc2N/N=C/c2ccc(-c3ccc(Cl)c([N+](=O)[O-])c3)o2)c1C         pIC50            5.14
1  CCOC(=O)c1ccc(Nc2nc3nonc3nc2N/N=C/c2c[nH]nc2-c2ccccc2)cc1         pIC50            5.46

Per the records, this molecule ( O=C1N=c2ccc(Nc3nc4nonc4nc3N/N=C/c3ccccc3OCc3ccc(Cl)cc3Cl)cc2=N1 ) has pIC50 equal to 4.22

Per the records, this molecule ( Cc1cccc(Nc2nc3nonc3nc2N/N=C/c2cc3c(cc2[N+](=O)[O-])OCO3)c1C ) has pIC50 equal to 5.59

Per the records, this molecule ( Cc1ccc(-c2ccc(/C=N/Nc3nc4nonc4nc3Nc3ccc(Br)cc3)o2)cc1Cl ) has pIC50 equal to 5.48
